- assay-method-text: Luminescence Cell-Based Dose Confirmation HTS to Identify Inhibitors of Platelet Dense Granule Release. [Related pubchem assays: 1663 (Primary HTS), 1678 (Summary of Project)]
- Type: functional
Active and inactive are the calls of the source. Cut-off read from the data, not from the text of the source: actives have a measured EC50 and inactives only a lower limit.
// values below are reported EC50

given-smiles: O=C(Cn1cnc2c(cnn2-c2ccc(F)cc2)c1=O)OCc1ccccc1
EC50: > 112 µM (not active)
--
given-smiles: CC(C)(C)n1nc(-c2ccc(Cl)cc2)c2c(N)ncnc21
EC50: 5.58 µM (active)
--
given-smiles: CCc1ccc(C(=O)COC(=O)CNC(=O)c2ccco2)cc1
EC50: > 112 µM (not active)
--
given-smiles: COc1ccc(CNC(=O)c2cc(S(=O)(=O)N3CCCC3)cn2C)cc1
EC50: > 112 µM (not active)
